Items are presented alongside their recorded log10 IC50.
Molecular target: α₁ receptors
Assay: [3H]prazosin binding (α1 receptors), rat cerebral cortex membranes
Conditions: rat cerebral cortex crude membranes, [3H]prazosin 0.35 nM, 25°C 30 min; read-out: Receptor Binding IC50 (nM) α1
Counter-ions that a name gives are not always drawn.
All values: log10 IC50 [nM].

Solved entries (count: 5):
>>> result_value("Cc1c(-c2ccccc2)oc2c(C(=O)NCCCN3CCN(c4ccccc4)CC3)cccc2c1=O [Example 15, monohydrochloride hemihydrate]")
0.90
>>> result_value("COc1ccccc1N1CCN(CCOCc2cccc3c(=O)c(C)c(-c4ccccc4)oc23)CC1.Cl.Cl [Example 27, dihydrochloride]")
1.36
>>> result_value("COc1ccccc1N1CCN(CC/C=C/c2cccc3c(=O)c(C)c(-c4ccccc4)oc23)CC1")
1.26
>>> result_value("Cc1c(-c2ccccc2)oc2c(C(=O)NCCCN3CCC(n4c(=O)[nH]c5ccccc54)CC3)cccc2c1=O")
1.84
>>> result_value("COc1ccccc1N1CCN(CCCOC(=O)c2cccc3c(=O)c(C)c(-c4ccccc4)oc23)CC1.Cl.Cl [Example 5, dihydrochloride]")
1.30

Pending compound:
API: value(readout= log10 IC50, system= α₁ receptors, query= COc1ccccc1N1CCN(CCC(=O)N(C)c2cccc3c(=O)c(C)c(-c4ccccc4)oc23)CC1.CS(=O)(=O)O [Example 63, methanesulphonate] ) 2.29

----------
Molecular target: 5HT1A receptors (Rattus norvegicus, UniProt P19327)
Construct: Rat hippocampi were homogenized; from tissue; host or cells: rat hippocampus membranes
Sequence (P19327 whole entry): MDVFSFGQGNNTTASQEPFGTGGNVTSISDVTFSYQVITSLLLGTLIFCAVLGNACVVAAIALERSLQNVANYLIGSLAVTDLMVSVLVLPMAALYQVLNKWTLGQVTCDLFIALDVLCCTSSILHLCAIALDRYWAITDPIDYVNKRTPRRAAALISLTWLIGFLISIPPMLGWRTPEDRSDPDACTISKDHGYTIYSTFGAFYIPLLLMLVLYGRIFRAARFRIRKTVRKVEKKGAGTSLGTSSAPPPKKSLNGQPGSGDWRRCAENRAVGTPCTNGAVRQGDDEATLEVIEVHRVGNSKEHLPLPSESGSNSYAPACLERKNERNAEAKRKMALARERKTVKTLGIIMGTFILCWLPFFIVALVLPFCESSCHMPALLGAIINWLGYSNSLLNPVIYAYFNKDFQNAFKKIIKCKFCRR
Assay: [3H]8-OH-DPAT binding (5HT1A receptors), rat hippocampus membranes
measured-property: IC50

Which IC50 is reported for this molecule? CS(=O)(=O)O.Cc1c(-c2ccccc2)oc2c(C(=O)NCCCN3CCC(c4ccccc4)(c4ccccc4)CC3)cccc2c1=O > 1000 nM

----------
Experiment: Acute toxicity in mice after intraperitoneal and oral administration
Conditions: mouse, in vivo, ip; female albino Swiss mice, intraperitoneal, mortality recorded 7 days after administration; read-out: Acute Toxicity in Mice LD50 (mg/kg) i.p.
Items are presented alongside their recorded LD50 at 168 h.
Please give a number only; it is taken to be in mg/kg.

Solved entries (count: 4):
>>> result_value("COc1ccccc1N1CCN(CC(O)c2cccc3c(=O)c(C)c(-c4ccccc4)oc23)CC1.Cl (stereo not drawn) [Example 17]")
299
>>> result_value("COc1ccccc1N1CCN(CCN(C)S(=O)(=O)c2cccc3c(=O)c(C)c(-c4ccccc4)oc23)CC1.Cl [Example 49]")
432
>>> result_value("COc1ccccc1N1CCN(CCCS(=O)(=O)c2cccc3c(=O)c(C)c(-c4ccccc4)oc23)CC1.Cl [Example 47]")
330
>>> result_value("COc1ccccc1N1CCN(CCNS(=O)(=O)c2cccc3c(=O)c(C)c(-c4ccccc4)oc23)CC1.Cl [Example 48]")
500

Which LD50 at 168 h is reported for this compound? Cc1c(-c2ccccc2)oc2c(C(=O)OCCN3CCCCC3)cccc2c1=O [Flavoxate, reference compound] 385

# iterate: COc1ccccc1N1CCN(CCC(O)c2cccc3c(=O)c(C)c(-c4ccccc4)oc23)CC1.Cl (stereo not drawn) [Example 20] 297

# iterate: COc1ccccc1N1CCN(CCNc2cccc3c(=O)c(C)c(-c4ccccc4)oc23)CC1.Cl.Cl [Example 32] 301

# iterate: COc1ccccc1N1CCN(CCC(=O)c2cccc3c(=O)c(C)c(-c4ccccc4)oc23)CC1.Cl [Example 4] 346

# iterate: COc1ccccc1N1CCN(CCCCNS(=O)(=O)c2cccc3c(=O)c(C)c(-c4ccccc4)oc23)CC1.CS(=O)(=O)O.CS(=O)(=O)O [Example 67] 508

----------
Target: 5HT1A receptors (Rattus norvegicus)
Construct: Rat hippocampi were homogenized; from tissue; host or cells: rat hippocampus membranes
Test: [3H]8-OH-DPAT binding (5HT1A receptors), rat hippocampus membranes
Details: rat hippocampus crude membranes, [3H]8-OH-DPAT 1.0 nM, 25°C 30 min; read-out: Receptor Binding IC50 (nM) 5-HT1a
Counter-ions that a name gives are not always drawn.
Label y when IC50 is strictly below 20 nM; at or above that, label n.

Please review the following examples before continuing.
>>> group("Cc1c(-c2ccccc2)oc2c(C(=O)NCCCN3CCN(c4ccccc4O)CC3)cccc2c1=O")
"y"
>>> group("COc1ccc(-c2oc3c(C(=O)NCCCN4CCN(c5ccccc5OC)CC4)cccc3c(=O)c2C)cc1")
"y"
>>> group("COc1ccccc1N1CCN(CCCOC(=O)c2cccc3c(=O)c(C)c(-c4ccccc4)oc23)CC1.Cl.Cl [Example 5, dihydrochloride]")
"y"
>>> group("COc1cccc(OC)c1OCCNCCOc1cccc2c(=O)c(C)c(-c3ccccc3)oc12.Cl [Example 44, hydrochloride]")
"n"
>>> group("Cc1c(-c2ccccc2)oc2c(C(=O)NCCCNCC3CCc4ccccc4C3=O)cccc2c1=O (stereo not shown) [Example 65, methanesulphonate]")
"n"
>>> group("COc1ccccc1N1CCN(CC(=O)N(C)Cc2cccc3c(=O)c(C)c(-c4ccccc4)oc23)CC1 [Example 26, hydrochloride hydrate]")
"n"

Turning now to a further record.
API: query returns whether the molecule falls strictly under 20 nM in IC50. Query: COc1ccccc1OCCN(C)CCCNC(=O)c1cccc2c(=O)c(C)c(-c3ccccc3)oc12.Cl [Example 62, hydrochloride] n

----------
Items are presented alongside their recorded IC50.
Biological target: α₁ receptors
Experiment: [3H]prazosin binding (α1 receptors), rat cerebral cortex membranes
Conditions: rat cerebral cortex crude membranes, [3H]prazosin 0.35 nM, 25°C 30 min; read-out: Receptor Binding IC50 (nM) α1
Please give a number only; it is taken to be in nM.

Solved entries (count: 5):
>>> result_value("CCOC(CN1CCN(c2ccccc2OC)CC1)c1cccc2c(=O)c(C)c(-c3ccccc3)oc12.Cl (stereo not shown) [Example 22, hydrochloride]")
117
>>> result_value("COc1ccccc1N1CCN(CCCC(=O)Nc2cccc3c(=O)c(C)c(-c4ccccc4)oc23)CC1 [Example 69, methanesulphonate hemihydrate]")
16
>>> result_value("COc1ccccc1N1CCN(CCSCc2cccc3c(=O)c(C)c(-c4ccccc4)oc23)CC1.Cl [Example 29, hydrochloride]")
86
>>> result_value("COc1ccccc1OCCNCCCNC(=O)c1cccc2c(=O)c(C)c(-c3ccccc3)oc12.Cl [Example 14, hydrochloride]")
61
>>> result_value("COc1ccccc1N1CCN(CCCNC(=O)c2cccc3c(=O)ccoc23)CC1")
216

Which IC50 is reported for this compound? COc1ccccc1N1CCN(CC(O)COc2cccc3c(=O)c(C)c(-c4ccccc4)oc23)CC1.Cl (stereo not shown) [Example 45, hydrochloride] 15

# iterate: COc1ccccc1N1CCN(CCCCNS(=O)(=O)c2cccc3c(=O)c(C)c(-c4ccccc4)oc23)CC1.CS(=O)(=O)O.CS(=O)(=O)O [Example 67, dimethanesulphonate] 4

----------
Assay: Acute toxicity in mice after intraperitoneal and oral administration
Conditions: mouse, in vivo; female albino Swiss mice, oral, mortality recorded 7 days after administration; read-out: Acute Toxicity in Mice LD50 (mg/kg) p.o.
Where a name gives a salt, the structure may show the parent alone.
measured-property: log10 of LD50 at 168 h (log10 of the value in mg/kg)
All values: log10 LD50 at 168 h [mg/kg].

>>> result_value("COc1ccccc1N1CCN(CCCNS(=O)(=O)c2cccc3c(=O)c(C)c(-c4ccccc4)oc23)CC1.CS(=O)(=O)O")
2.77
>>> result_value("CS(=O)(=O)O.Cc1c(-c2ccccc2)oc2c(C(=O)NCCCN3CCC(c4ccccc4)CC3)cccc2c1=O")
2.62
>>> result_value("COc1ccccc1N1CCN(CCOC(=O)Cc2cccc3c(=O)c(C)c(-c4ccccc4)oc23)CC1.Cl.Cl")
2.78

Which log10 of LD50 at 168 h is reported for this molecule? COc1ccccc1N1CCN(CCNS(=O)(=O)c2cccc3c(=O)c(C)c(-c4ccccc4)oc23)CC1.Cl 3.28

# iterate: COc1ccccc1N1CCN(CCCC[S+]([O-])c2cccc3c(=O)c(C)c(-c4ccccc4)oc23)CC1.CS(=O)(=O)O (stereo not shown) 2.66

# iterate: Cc1ccccc1N1CCN(CC(O)c2cccc3c(=O)c(C)c(-c4ccccc4)oc23)CC1.Cl (stereo not shown) 3.48

# iterate: COc1ccccc1N1CCN(CCCOc2cccc3c(=O)c(C)c(-c4ccccc4)oc23)CC1.Cl.Cl 2.54

# iterate: Cc1c(-c2ccccc2)oc2c(C(=O)NCCCN3CCN(c4ccccc4O)CC3)cccc2c1=O 2.44

# iterate: COc1ccccc1N1CCN(CCCN(C(N)=O)c2cccc3c(=O)c(C)c(-c4ccccc4)oc23)CC1 [Example 50, methanesulphonate hemihydrate] 2.48

# iterate: COc1ccccc1N1CCN(CCCNC(=O)c2cccc3c(=O)c(C)c(-c4ccccc4)oc23)CC1 [Example 11, dihydrochloride hemihydrate] 2.47

# iterate: COc1ccccc1N1CCN(CCCCNS(=O)(=O)c2cccc3c(=O)c(C)c(-c4ccccc4)oc23)CC1.CS(=O)(=O)O.CS(=O)(=O)O 3.27

# iterate: CCOc1ccccc1OCCNCCOCc1cccc2c(=O)c(C)c(-c3ccccc3)oc12.Cl 3.05
